Exercise: for every item that follows, state its recorded intrinsic clearance, human liver microsomes.

response.value for CC(C)(C)n1cc(CNc2cccnc2)cn1 (field: intrinsic clearance, human liver microsomes) = ≤ 4.74 mL/min/kg

response.value for Cc1cc(NC(=O)c2ccc(NC3CC3)nc2)[nH]n1 (field: intrinsic clearance, human liver microsomes) = 6.42 mL/min/kg

response.value for CCc1nnsc1C(=O)Nc1cccc(-c2nnc3n2CCCCC3)c1 (field: intrinsic clearance, human liver microsomes) = 15 mL/min/kg

response.value for COc1ccccc1CC(=O)NC1CCN(C)CC1 (field: intrinsic clearance, human liver microsomes) = ≤ 4.74 mL/min/kg

response.value for Cc1ccc(-n2c(S)nnc2-c2ccc(O)cc2)c(C)c1 (field: intrinsic clearance, human liver microsomes) = 10.1 mL/min/kg

response.value for CN(C)C(=O)c1cncc(N(C)CCN(C)C2CCCC2)n1 (field: intrinsic clearance, human liver microsomes) = 6.5 mL/min/kg

====

PROPERTY: MDR1-MDCK efflux ratio

response.value for CN1CCN(c2ncncc2-c2nc(-c3ccccc3)no2)CC1 (field: MDR1-MDCK efflux ratio) = 0.527

response.value for Cc1ccnc(N2CC(O)(c3ccc(F)cc3)C2)c1C#N (field: MDR1-MDCK efflux ratio) = 0.696

response.value for CN(Cc1ccc2c(c1)OCO2)Cc1ccccc1C#N (field: MDR1-MDCK efflux ratio) = 0.351

response.value for CCc1nc(C)cc(N2CCCC3(CCNCC3)CC2)n1 (field: MDR1-MDCK efflux ratio) = 32.4

response.value for N#CC1(CN2CCc3cc(-c4ccccc4)oc3C2)CC1 (field: MDR1-MDCK efflux ratio) = 0.273

response.value for CN(CC(=O)Nc1cc(F)cc(F)c1)c1ccnc(C(N)=O)c1 (field: MDR1-MDCK efflux ratio) = 12.3

response.value for Cc1ccc(C(N)=O)c(OCc2c(Cl)ccc3cccnc23)c1 (field: MDR1-MDCK efflux ratio) = 0.372

response.value for CC(C)S(=O)(=O)c1ccc2nccc(Nc3ccc4scnc4c3)c2c1 (field: MDR1-MDCK efflux ratio) = 14.6

response.value for Cc1cccc(-c2ncc(CNCc3ccccc3-n3cccn3)cn2)c1 (field: MDR1-MDCK efflux ratio) = 0.593

response.value for CNCc1cc(NC)nc(C2CCCN2C(=O)COc2ccccc2OC)n1 (stereo not drawn) (field: MDR1-MDCK efflux ratio) = 1.2

response.value for CSc1nccc(N2Cc3cnn(Cc4ccc(F)cc4)c3C2)n1 (field: MDR1-MDCK efflux ratio) = 0.579

response.value for CC(C)[C@H](CO)Nc1nc(Nc2cc(N)cc(Cl)c2)c2ncn(C(C)C)c2n1 (field: MDR1-MDCK efflux ratio) = 16.9

response.value for COc1ccc2nc(CN3CCC(O)(c4ccc(C)cc4)CC3)ccc2c1 (field: MDR1-MDCK efflux ratio) = 0.485

response.value for Cc1cccc(Nc2ccc(C3CCN(C(=O)c4cc5cc(F)ccc5n4C)CC3)nc2)n1 (field: MDR1-MDCK efflux ratio) = 1.5

response.value for c1cc(-c2noc(CN3CCOCC3)n2)ccn1 (field: MDR1-MDCK efflux ratio) = 0.732

response.value for Cc1ccc(-c2ccc(NC(=O)c3ncoc3-c3ccccc3)cc2)o1 (field: MDR1-MDCK efflux ratio) = 0.447

response.value for N#Cc1c(N)nc(SCC(N)=O)c(C#N)c1-c1ccc(OCC2CC2)cc1 (field: MDR1-MDCK efflux ratio) = 42.5

response.value for CC(=O)N1CCC(Nc2ncnc3cc(-c4ccc(Br)cc4)sc23)CC1 (field: MDR1-MDCK efflux ratio) = 5.91

response.value for COc1cccc(F)c1NC(=O)N1CCC(N2CC=CC2)CC1 (field: MDR1-MDCK efflux ratio) = 8.24

response.value for Cc1ccnc(NC(=O)CN2CCCC2=O)c1 (field: MDR1-MDCK efflux ratio) = 2.12

response.value for CCC(=O)N1CCCc2cc(C(O)CN3CCN(c4ccc(OC)cc4)CC3)ccc21 (stereo not drawn) (field: MDR1-MDCK efflux ratio) = 1.69

response.value for COc1ccc(-n2cc3c(c2-c2ccccc2Br)c(=O)n(C)c(=O)n3C)cc1 (field: MDR1-MDCK efflux ratio) = 0.946

response.value for Cc1nc(-c2cccnc2)sc1C(=O)Nc1ccccc1-c1cn2c(CN3CCOCC3)csc2n1 (field: MDR1-MDCK efflux ratio) = 3.28

====

Exercise: for every item that follows, state its recorded MDR1-MDCK efflux ratio.
Respond using a number only.

response.value for CCCn1ncc2[nH]c(-c3cc(Cn4cncn4)c(C)cc3C)nc21 (field: MDR1-MDCK efflux ratio) = 90.9

response.value for O=C(c1cccs1)N1C[C@@H]2CCCN(C(=O)c3cccs3)[C@@H]2C1 (field: MDR1-MDCK efflux ratio) = 2.37

response.value for CNC(=O)Cc1cccc(OCCN2CCCCC2)c1 (field: MDR1-MDCK efflux ratio) = 11.8

response.value for Cc1ccc(O)c(CN2CCC(c3nc4ccccc4o3)CC2)n1 (field: MDR1-MDCK efflux ratio) = 0.688

response.value for Cn1cc(CN2CCCC(c3ccnc(Nc4cnccn4)c3)C2)cn1 (configuration not stated) (field: MDR1-MDCK efflux ratio) = 6.36

response.value for Cc1cc(Nc2ccc(F)cn2)cc(C2CCN(C(=O)COc3ccccc3)C2)n1 (configuration not stated) (field: MDR1-MDCK efflux ratio) = 15.5

response.value for Cc1nc(CC(=O)NCc2ccccc2)cs1 (field: MDR1-MDCK efflux ratio) = 0.79

response.value for CN1[C@@H]2CC[C@H]1C[C@H](OC(c1ccccc1)c1ccccc1)C2 (field: MDR1-MDCK efflux ratio) = 7.37

response.value for CCCN1CCCN(c2ncccc2C#N)CC1 (field: MDR1-MDCK efflux ratio) = 0.42

response.value for CCONC(=O)c1sc(C)nc1C (field: MDR1-MDCK efflux ratio) = 0.788

response.value for O=c1c2ccccc2cnn1Cc1cccc(OCC(F)(F)F)c1 (field: MDR1-MDCK efflux ratio) = 35.9

response.value for Cn1cncc1CCNC(=O)[C@H]1CC1(C)C (field: MDR1-MDCK efflux ratio) = 8.23

====

In this scheme, each record receives a class according to its intrinsic clearance, human liver microsomes; the ranges are LOW = under 30 mL/min/kg, MEDIUM = from 30 mL/min/kg up to 70 mL/min/kg, HIGH = 70 mL/min/kg and over

Input O=C(OCC1CCSCC1)c1cccc(-n2cccn2)n1 ; output its category
HIGH

Input Cc1cccc(NC(=O)c2cccc3ncccc23)c1 ; output its category
LOW

Input Cc1cc(C)n(C(=O)CCCC(=O)n2nc(C)cc2C)n1 ; output its category
HIGH

Input NC[C@@](O)(c1ccc(Cl)cc1)c1ccc(-c2cn[nH]c2)cc1 ; output its category
LOW

Input COc1ccc(-c2nc(CN3CCC[C@H](O)C3)no2)cc1 ; output its category
LOW

Input CNCc1cc(N(C)C)nc(C2CCCN2C(=O)COc2ccc(F)cc2)n1 (centres undefined) ; output its category
LOW

Input CC(=O)NCc1cc2n(n1)CCN(C1Cc3ccccc3C1)C2 ; output its category
LOW

Input CC(=O)N1CCN(c2nc(C(F)(F)F)nc3sc(C)c(C)c23)CC1 ; output its category
MEDIUM

Input Cn1cc(C(=O)NCCc2c[nH]c3ccccc23)c(-c2cccnc2)n1 ; output its category
MEDIUM

Input c1ccc(C(c2ccccc2)c2noc(Cn3cnc(C4CC4)n3)n2)cc1 ; output its category
MEDIUM

Input COc1cc2c(NC3CCN(C(C)C)CC3)nc(N3CCC(F)(F)CC3)nc2cc1OCCCN1CCCC1 ; output its category
LOW

Input CN(c1ncc(Br)cn1)C1CCS(=O)CC1 (centres undefined) ; output its category
LOW

Input O=c1n(Cc2ccncc2)nc2n1-c1cc(Cl)ccc1C1=NCCN12 ; output its category
LOW

Input Cc1nc2ccccc2c(N)c1C(=O)/C=C/c1ccccc1 ; output its category
MEDIUM

Input Cc1ccc(NC(=O)c2cccc(N(C)C)c2)cc1NC(=O)c1ccc(O)cc1 ; output its category
MEDIUM

Input COc1ccc(CN(C)c2ncncc2Br)cc1O ; output its category
LOW

Input Nc1nc(N)c2c(Cl)c(Br)ccc2n1 ; output its category
LOW

Input Cc1noc(C)c1N(C)CCn1cncn1 ; output its category
LOW

Input COCc1ccccc1CNc1ccc2cc(C#N)ccc2n1 ; output its category
HIGH

Input Cc1cc(C(=O)N(C)Cc2ccsc2)no1 ; output its category
LOW

Input CCN(Cc1cccs1)C(=O)CN1CCC(n2c(=O)[nH]c3ccccc32)CC1 ; output its category
HIGH

Input CCCc1noc(CN2CCN(c3ccccc3OC)CC2)n1 ; output its category
LOW

Input CCc1oc2c(-n3cnnc3)cccc2c1C ; output its category
HIGH

Input Cc1nc(COc2ccc(F)cc2)sc1C(=O)N1CCC(C)CC1 ; output its category
HIGH

====

Exercise: for every item that follows, state its recorded MDR1-MDCK efflux ratio.
Respond using a number only.

response.value for CN1CCN(S(=O)(=O)Cc2ccc(Cl)c(Cl)c2)CC1 (field: MDR1-MDCK efflux ratio) = 0.562

response.value for CC(=O)Nc1cccc(OCC(=O)N2CCCCC2)c1 (field: MDR1-MDCK efflux ratio) = 11.9

response.value for Cc1nccn1-c1cncc(N2CCN(CC3CCCC3)C(=O)C2)n1 (field: MDR1-MDCK efflux ratio) = 6.94

response.value for CN(C)c1cncc(-c2ccc(C(=O)NC(C)(C)C)cc2)n1 (field: MDR1-MDCK efflux ratio) = 0.697

response.value for O=C(Nc1ccccc1)c1c([O-])n(-c2ccccc2)n[n+]1Cc1ccccc1 (field: MDR1-MDCK efflux ratio) = 0.868

response.value for COc1cccc(C)c1C(=O)N[C@H](CO)CCSC (field: MDR1-MDCK efflux ratio) = 1.7

response.value for CCN(Cc1nc(C)no1)C(=O)c1cc(C)c(C)n(C)c1=O (field: MDR1-MDCK efflux ratio) = 82.6

response.value for c1cc(CNc2ncc(-c3cnccn3)c(C3CC3)n2)ccn1 (field: MDR1-MDCK efflux ratio) = 1.35

response.value for N#Cc1ccccc1NC(=O)CCc1ccccc1 (field: MDR1-MDCK efflux ratio) = 0.552

response.value for CNc1ccc(/C=C/c2ccc(OCCOCCOCCF)nc2)cc1 (field: MDR1-MDCK efflux ratio) = 0.533

response.value for Cc1cccnc1CN1CCC(O)(c2ccccc2)CC1 (field: MDR1-MDCK efflux ratio) = 0.958

response.value for Cc1csc(-c2nnc(Nc3ccc(Oc4ncccc4-c4ccnc(N)n4)cc3)c3ccccc23)c1 (field: MDR1-MDCK efflux ratio) = 0.918

response.value for O=C(c1cccc(N2CCNC2=O)c1)N1CCc2ccccc2C1 (field: MDR1-MDCK efflux ratio) = 5.72

response.value for Cc1nc(C2CCNCC2)cc(N(C)C)n1 (field: MDR1-MDCK efflux ratio) = 4.51

response.value for Fc1cc(Br)ccc1CNCc1ccccn1 (field: MDR1-MDCK efflux ratio) = 12

response.value for COc1cn(-c2ccc(-n3cccn3)cc2F)nc(-c2ccnn2-c2ccccc2)c1=O (field: MDR1-MDCK efflux ratio) = 10.9

response.value for CCOC(=O)CCN1CCC=C(Br)C1 (field: MDR1-MDCK efflux ratio) = 0.625

response.value for Cc1c(-c2c(F)cc(C(N)=O)c3[nH]c4c(c23)CC[C@H](C(C)(C)O)C4)cccc1-n1c(=O)c2cccc(F)c2n(C)c1=O (field: MDR1-MDCK efflux ratio) = 3.4

response.value for Cc1ccc(NC(=O)CN2[C@H](Cc3ccccc3)C[C@]3(C)NC(=O)CCC[C@H]23)cc1F (field: MDR1-MDCK efflux ratio) = 12.4

response.value for COc1ccc(OCC(=O)Nc2cccc(Cl)c2N2CCN(C(C)=O)CC2)cc1 (field: MDR1-MDCK efflux ratio) = 1.09

response.value for CCOc1ccc2[nH]c(C(=O)N3CC[C@@](O)(CC(C)C)[C@@H](Oc4ccc(F)cc4)C3)c(C)c2c1 (field: MDR1-MDCK efflux ratio) = 6.74

response.value for CN(c1ccc(NC(=O)Nc2ccc(OC(F)(F)F)cc2)cc1)c1ccnc(Nc2cccc(S(N)(=O)=O)c2)n1 (field: MDR1-MDCK efflux ratio) = 8.5
